- assay_name: AP1 Signaling Pathway (AID 357);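 further: ME-180 reporter cells stimulated with EGF at its EC50 level; on the % scale 0 is the no-effect control and ±100 the full control effect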
- settings: ME-180 (cervical carcinoma) AP-1-bla reporter, EGF-induced, beta-lactamase ratio, 5 h; at 7.69 µM (top of the series) unless noted
Inconclusive results are not listed.
readout_type: activity change, negative = inhibition (%)
Quick note: give the figure in %, leave out the unit.

Incoming: Could you share which activity change, negative = inhibition value was measured for `Cc1nc2cnc(N(C)C)nc2n(CCc2ccccc2)c1=O` ?
Outgoing: -5.39

Incoming: # repeat for `O=c1c(-c2cccs2)nc2cnc(N3CCNCC3)nc2n1C1CC1`
Outgoing: 5.15

Incoming: Another molecule to check: `Cn1c(=O)c(-c2cc(F)cc(F)c2)nc2cncnc21`
Outgoing: -3.06

Incoming: Also check `COc1cccc(Nc2ncc3nc(-c4ccccc4)c(=O)n(C)c3n2)c1`
Outgoing: -7.32

Incoming: Another molecule to check: `Cc1noc(C)c1C(=O)N1CCC2(CCCN(c3ccncc3)C2)CC1`
Outgoing: 6.75

Incoming: What do you have for `COc1ncc2nc(CCc3ccccc3)c(=O)n(CCC#N)c2n1` ?
Outgoing: -1.07

Incoming: Now give it for `CN(C)C(=O)c1ccc(-c2ccc3ncnc(NCCN4CCOCC4)c3c2)cc1` too.
Outgoing: -5.51

Incoming: One more molecule: `Cn1cccc1C(=O)N1CCC[C@@]2(CCN(c3ncccn3)C2)C1`
Outgoing: -1.25

Incoming: How about this molecule: `CN(C)Cc1ccccc1-c1ccc2ncnc(NC3CC3)c2c1`
Outgoing: 24

Incoming: What about this molecule? `CN(C)Cc1ccccc1-c1cncnc1NCc1cccs1`
Outgoing: 8.74

Incoming: Cool, now `COc1ccccc1-c1cc(-n2ccnc2)ncn1`
Outgoing: 8.26
